The compounds listed here are annotated with their pIC50.
Target: purified human HDAC6 (Homo sapiens, UniProt Q9UBN7)
Sequence (Q9UBN7 1-1215): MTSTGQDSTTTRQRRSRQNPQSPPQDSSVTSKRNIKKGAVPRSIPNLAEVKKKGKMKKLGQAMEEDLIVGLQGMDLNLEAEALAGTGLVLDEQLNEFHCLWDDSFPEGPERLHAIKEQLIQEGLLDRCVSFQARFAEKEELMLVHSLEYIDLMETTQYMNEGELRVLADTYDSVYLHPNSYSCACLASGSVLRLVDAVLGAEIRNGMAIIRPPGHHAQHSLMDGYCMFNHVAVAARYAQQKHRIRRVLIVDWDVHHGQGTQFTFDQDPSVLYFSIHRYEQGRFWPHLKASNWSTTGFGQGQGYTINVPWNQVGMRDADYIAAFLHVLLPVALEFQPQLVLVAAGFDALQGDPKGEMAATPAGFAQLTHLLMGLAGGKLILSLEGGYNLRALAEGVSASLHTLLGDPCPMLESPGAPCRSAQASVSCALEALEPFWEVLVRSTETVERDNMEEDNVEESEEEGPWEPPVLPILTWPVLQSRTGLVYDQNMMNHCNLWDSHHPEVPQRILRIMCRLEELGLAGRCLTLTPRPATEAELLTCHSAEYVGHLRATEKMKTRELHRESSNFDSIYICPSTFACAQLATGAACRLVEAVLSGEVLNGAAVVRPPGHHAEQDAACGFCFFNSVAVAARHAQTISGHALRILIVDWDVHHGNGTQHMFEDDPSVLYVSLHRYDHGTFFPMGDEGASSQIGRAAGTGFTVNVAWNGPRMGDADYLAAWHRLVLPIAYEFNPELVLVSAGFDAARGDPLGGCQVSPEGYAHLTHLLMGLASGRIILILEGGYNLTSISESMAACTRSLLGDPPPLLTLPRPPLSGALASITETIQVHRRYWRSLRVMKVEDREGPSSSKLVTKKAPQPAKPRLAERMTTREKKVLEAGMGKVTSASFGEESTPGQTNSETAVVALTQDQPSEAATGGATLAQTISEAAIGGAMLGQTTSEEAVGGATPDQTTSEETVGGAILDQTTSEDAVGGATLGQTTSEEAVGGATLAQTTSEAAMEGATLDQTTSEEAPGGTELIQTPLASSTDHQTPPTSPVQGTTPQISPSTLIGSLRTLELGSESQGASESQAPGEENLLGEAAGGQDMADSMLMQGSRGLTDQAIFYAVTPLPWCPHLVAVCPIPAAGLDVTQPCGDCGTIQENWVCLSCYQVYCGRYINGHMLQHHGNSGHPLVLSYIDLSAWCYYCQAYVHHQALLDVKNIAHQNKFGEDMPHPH
pIC50: −log10 of the molar value.

// below: answered compounds
[[record]]
smi = "O=C(NO)c1ccc2c(c1)CCCN(C(=O)c1cc3ccccc3s1)C2"
measurement_name = "pIC50"
test_result = "> 7.30"

[[record]]
smi = "O=C(NO)c1ccc2c(c1)CCN(C(=O)c1cccc3ccccc13)C2"
measurement_name = "pIC50"
test_result = "7.00 to 7.30"

[[record]]
smi = "O=C(NO)c1ccc2c(c1)CCN(CCc1cccc3ccccc13)C2"
measurement_name = "pIC50"
test_result = "7.00 to 7.30"

[[record]]
smi = "O=C(NO)c1ccc2c(c1)CCCN(C(=O)C1CCCCC1)C2"
measurement_name = "pIC50"
test_result = "6.30 to 7.00"


For the next question, use this compound.
Dear colleague, I am looking for the recorded pIC50 of the following compound: `O=C(NO)c1ccc2c(c1)CCN(C(=O)Nc1ccc(OC(F)(F)F)cc1)C2`
> 7.30

Hello, the source for this data is patent US9096518B2, in case you need it.
